# combination Emax per record follows
- System: EVSA-T (Breast Carcinoma)
- METHOD_SUMMARY: combination Emax (second highest fraction inhibited in the dose matrix, 72 h); higher = more inhibition; extreme values may be limits of the assay

MOLECULE: CN(CCO)CC[C@H](CSc1ccccc1)Nc1ccc(S(=O)(=O)NC(=O)c2ccc(N3CCC([C@@H](O)c4ccccc4-c4ccc(Cl)cc4)CC3)cc2)cc1S(=O)(=O)C(F)(F)F [AZD4320] + Cc1cc2ncnn2cc1Nc1ncc2c(n1)n(C1CCOCC1)c(=O)n2C [AZD7648] (first compound max 1 µM, 7x7, partner max 10 µM)
TARGET_OR_SYSTEM: EVSA-T (Breast Carcinoma)
combination Emax: 0.191

MOLECULE: CC(=O)c1c(C)c2cnc(Nc3ccc(N4CCNCC4)cn3)nc2n(C2CCCC2)c1=O [Palbociclib] + CN(CC[C@H](CSC1=CC=CC=C1)NC2=C(C=C(C=C2)S(=O)(=O)NC(=O)C3=CC=C(C=C3)N4CCC(CC4)[C@H](C5=CC=CC=C5C6=CC=C(C=C6)Cl)O)S(=O)(=O)C(F)(F)F)CCO [AZD4320] (first compound max 10 µM, 7x7, partner max 1 µM)
TARGET_OR_SYSTEM: EVSA-T (Breast Carcinoma)
combination Emax: 0.444

MOLECULE: CN(CCO)CC[C@H](CSc1ccccc1)Nc1ccc(S(=O)(=O)NC(=O)c2ccc(N3CCC([C@@H](O)c4ccccc4-c4ccc(Cl)cc4)CC3)cc2)cc1S(=O)(=O)C(F)(F)F [AZD4320] + C[C@@H]1COCCN1C2=NC(=NC(=C2)C3(CC3)[S@](=N)(=O)C)C4=C5C=CNC5=NC=C4 [AZD6738] (first compound max 1 µM, 7x7, partner max 10 µM)
TARGET_OR_SYSTEM: EVSA-T (Breast Carcinoma)
combination Emax: 0.213

MOLECULE: Cc1cc2ncnn2cc1Nc1ncc2c(n1)n(C1CCOCC1)c(=O)n2C [AZD7648] + C=CCn1c(=O)c2cnc(Nc3ccc(N4CCN(C)CC4)cc3)nc2n1-c1cccc(C(C)(C)O)n1 [AZD1775] (first compound max 10 µM, partner max 1 µM)
TARGET_OR_SYSTEM: EVSA-T (Breast Carcinoma)
combination Emax: 0.291

----------
- System: TE-6 (Esophageal Squamous Cell Carcinoma)
- METHOD_SUMMARY: combination Emax (second highest fraction inhibited in the dose matrix, 72 h); higher = more inhibition; extreme values may be limits of the assay

COMPOUND: Cc1c2c(nn1C)CSCc1cc(n(C)n1)CSc1cc(c3ccccc3c1)OCCCc1c(C(=O)O)n(C)c3c-2c(Cl)ccc13 [AZD5991] + C=CCn1c(=O)c2cnc(Nc3ccc(N4CCN(C)CC4)cc3)nc2n1-c1cccc(C(C)(C)O)n1 [AZD1775] (first compound max 1 µM, partner max 1 µM)
combination Emax: 0.773
//
COMPOUND: COc1nnc2ccc(N3CCC(c4ccc(OCCN5CCN(C)C(=O)[C@H]5C)cc4)CC3)nn12 [AZD5153] + Cc1c2c(nn1C)CSCc1cc(n(C)n1)CSc1cc(c3ccccc3c1)OCCCc1c(C(=O)O)n(C)c3c-2c(Cl)ccc13 [AZD5991] (first compound max 1 µM, 7x7, partner max 1 µM)
combination Emax: 0.77
//
COMPOUND: Cc1c2c(nn1C)CSCc1cc(n(C)n1)CSc1cc(c3ccccc3c1)OCCCc1c(C(=O)O)n(C)c3c-2c(Cl)ccc13 [AZD5991] + CC1(C)CCC(CN2CCN(c3ccc(C(=O)NS(=O)(=O)c4ccc(NCC5CCOCC5)c([N+](=O)[O-])c4)c(Oc4cnc5[nH]ccc5c4)c3)CC2)=C(c2ccc(Cl)cc2)C1 [Venetoclax] (first compound max 1 µM, 7x7, partner max 1 µM)
combination Emax: 0.677
//
COMPOUND: COc1cccc(OCCCN)c1-c1cc(Nc2cnc(C#N)cn2)n[nH]1 [Prexasertib] + O=C(c1cc(Cc2n[nH]c(=O)c3ccccc23)ccc1F)N1CCN(C(=O)C2CC2)CC1 [Olaparib] (first compound max 1 µM, 7x7, partner max 10 µM)
combination Emax: 0.476
//
COMPOUND: COc1nnc2ccc(N3CCC(c4ccc(OCCN5CCN(C)C(=O)[C@H]5C)cc4)CC3)nn12 [AZD5153] + CN(CC[C@H](CSC1=CC=CC=C1)NC2=C(C=C(C=C2)S(=O)(=O)NC(=O)C3=CC=C(C=C3)N4CCC(CC4)[C@H](C5=CC=CC=C5C6=CC=C(C=C6)Cl)O)S(=O)(=O)C(F)(F)F)CCO [AZD4320] (first compound max 1 µM, 7x7, partner max 1 µM)
combination Emax: 0.81
//
COMPOUND: COc1cccc(OCCCN)c1-c1cc(Nc2cnc(C#N)cn2)n[nH]1 [Prexasertib] + C[C@@H]1COCCN1C2=NC(=NC(=C2)C3(CC3)[S@](=N)(=O)C)C4=C5C=CNC5=NC=C4 [AZD6738] (first compound max 1 µM, 7x7, partner max 10 µM)
combination Emax: 0.695
